- tested on: mTLR9 (Mus musculus)
- Construct: Splenocytes isolated from male C57/BL6 mice; from tissue; host or cells: splenocytes from the spleen of male C57BL/6 mice
- Sequence (Q9EQU3 26-1032): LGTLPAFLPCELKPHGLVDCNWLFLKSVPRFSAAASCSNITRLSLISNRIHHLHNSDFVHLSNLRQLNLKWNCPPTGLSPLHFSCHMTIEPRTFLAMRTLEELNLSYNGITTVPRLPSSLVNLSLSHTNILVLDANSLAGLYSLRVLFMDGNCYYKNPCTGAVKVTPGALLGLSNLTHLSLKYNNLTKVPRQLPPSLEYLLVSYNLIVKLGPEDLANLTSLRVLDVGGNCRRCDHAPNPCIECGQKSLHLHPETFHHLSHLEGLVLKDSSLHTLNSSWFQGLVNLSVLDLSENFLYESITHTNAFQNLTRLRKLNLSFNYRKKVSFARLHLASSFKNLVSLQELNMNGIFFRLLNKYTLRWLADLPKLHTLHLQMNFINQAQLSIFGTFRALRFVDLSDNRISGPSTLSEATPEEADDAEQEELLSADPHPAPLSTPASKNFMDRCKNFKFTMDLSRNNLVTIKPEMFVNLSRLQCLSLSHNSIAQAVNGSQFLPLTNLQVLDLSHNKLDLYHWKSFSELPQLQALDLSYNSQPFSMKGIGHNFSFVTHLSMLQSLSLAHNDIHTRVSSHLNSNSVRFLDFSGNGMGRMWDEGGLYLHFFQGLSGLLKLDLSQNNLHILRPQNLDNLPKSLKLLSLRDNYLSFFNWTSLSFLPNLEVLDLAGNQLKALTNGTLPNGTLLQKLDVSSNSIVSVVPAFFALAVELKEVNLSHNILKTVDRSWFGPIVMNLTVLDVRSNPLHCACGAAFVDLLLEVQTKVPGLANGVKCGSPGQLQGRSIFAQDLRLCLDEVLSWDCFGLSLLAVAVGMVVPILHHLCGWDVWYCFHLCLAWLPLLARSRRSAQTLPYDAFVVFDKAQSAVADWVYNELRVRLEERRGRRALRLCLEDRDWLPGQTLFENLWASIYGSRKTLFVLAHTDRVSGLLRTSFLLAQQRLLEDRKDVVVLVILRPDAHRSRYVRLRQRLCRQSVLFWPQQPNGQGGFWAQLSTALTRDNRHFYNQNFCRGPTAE
- test description: mTLR9 antagonism (IL-6 and TNF-α release assay) in mouse splenocytes, CpG ODN-2006 stimulated
- Type: cell-based
- condition: 1 μM; TNF-α release, mouse splenocytes; read-out: mTLR9 inhibitory activity (% at 1 μM), TNF-α
quantity kind: inhibition at 1 µM (%)
Give bare numbers, in %.

Example compounds with recorded inhibition at 1 µM:
Cc1cc2c(cc(CCN3CCOCC3)n2C)c(-c2ccc(N3CCN(C(C)C)CC3)cc2)n1 [Example B11]: 100
Cc1cc2c(cc(CN3CCOCC3)n2C)c(-c2ccc(N3CCN(C(C)C)CC3)cc2)n1 [Example A35]: 90
Cc1cc2c(cc(CCN3CCOCC3)n2C)c(-c2ccc(C3CCN(C(C)C)CC3)cc2)n1 [Example B31]: 92
Cc1cc2[nH]c(CCN3CCOCC3)cc2c(-c2ccc(N3CCN(C(C)C)CC3)cc2)n1 [Example B3]: 100
CN1CCN(c2ccc(-c3nccc4[nH]c(CCN5CCOCC5)cc34)cc2)CC1 [Example B2]: 95

# map each compound to its inhibition at 1 µM
1. CC(C)N1CCC(Oc2ccc(-c3nccc4[nH]c(CN5CCOCC5)cc34)cc2)CC1 [Example A56]
2. CC(C)N1CCN(c2ccc(-c3nccc4[nH]c(CN5CC(O)C5)cc34)cc2)CC1 [Example A72]
3. Cc1cc2[nH]c(CN3CCC4(CC3)CC(C)C4)cc2c(-c2ccc(N3CCN(C(C)C)CC3)cc2)n1 [Example A30]

OUTPUT:
[71, 0, 100]
